- Test system: MCL-1ΔNΔC
- Experiment: High-throughput competitive FP binding screen, FITC-MCL-1 SAHB/MCL-1ΔNΔC interaction
- Settings: selectivity for MCL-1ΔNΔC over BCL-XLΔC targeting (BCL-XL % Bound minus MCL-1 % Bound)
Test Readout: Spec Values
Please reply with the value in numeric form only.

query: Sample "CCOc1ccc(S(=O)(=O)/N=C2/C=C(Sc3nc[nH]n3)C(=O)c3ccccc32)cc1" — what was its Spec Values?
result: 101.1

query: Sample CC1=C(C#N)C(=O)N=C(O)/C1=C\c1ccc(-c2ccc(S(N)(=O)=O)cc2)o1 [drawing 84] — what was its Spec Values?
result: 76.4

query: Sample "CC(C)c1ccc(C2=CC(=O)C=CC2=O)cc1" — what was its Spec Values?
result: 82.58

query: Sample "CS/C(=N\S(=O)(=O)c1ccccc1)NNc1ccccc1" — what was its Spec Values?
result: 59.46

query: Sample "C/N=c1\scc(-c2c[nH]c3ccccc23)n1C" — what was its Spec Values?
result: 83.96

query: Sample "CCOC(=O)C1=C(NC(=O)c2ccccc2)S/C(=C\c2ccc(C)o2)C1=O" — what was its Spec Values?
result: 58.06

query: Sample "O=C(CSc1nnc(-c2ccoc2)c(-c2ccoc2)n1)c1ccc(-c2ccccc2)cc1" — what was its Spec Values?
result: 53.14

query: Sample "O=C1CSCC(=O)N1c1csc(C(F)(F)F)c1-c1ccccc1" — what was its Spec Values?
result: 74.8

query: Sample "CCOc1cc(/C=C(/C#N)c2cccc(Br)c2)ccc1OCc1ccc(C(=O)O)o1" — what was its Spec Values?
result: 50.28

query: Sample "CS(=O)(=O)C1=NN2C(=N)/C(=C\c3ccc(-c4ccc(Cl)cc4)o3)C(=O)N=C2S1" — what was its Spec Values?
result: 49.33

query: Sample "CCCOC(=O)c1cc(-c2ccc(/C=C3\C(=O)N(CCCO)C(=O)C(C#N)=C3C)o2)ccc1Cl" — what was its Spec Values?
result: 82.57

query: Sample "CCOC(=O)c1ccc2nc(NC(=O)CSc3nc(C)cc(=O)[nH]3)sc2c1" — what was its Spec Values?
result: 49.78

query: Sample CCSC1=C(C#N)C(=O)NC(c2ccc(N(C)C)cc2)S1 (stereo not shown) — what was its Spec Values?
result: 49.2

query: Sample "O=C(CSc1nc2c(sc(=S)n2Cc2ccco2)c(=O)n1-c1ccccc1)c1ccc(O)c(O)c1" — what was its Spec Values?
result: 61.48

query: Sample "CCCOc1nc2c(c(-c3ccco3)c1C#N)CCCC2" — what was its Spec Values?
result: 52.96

query: Sample "O=C(c1ccc(O)cc1)N1CCN(c2cccc(Cl)c2)CC1" — what was its Spec Values?
result: 62.99

query: Sample CC1CCN(C2=NN3C(=N)C(Cc4ccc(SCc5ccco5)o4)C(=O)N=C3S2)CC1 (stereo not shown) — what was its Spec Values?
result: 70.38

query: Sample CC1(C)CC2CC(C)(CN2c2nc(N)c3c(N)nc4c(c3c2C#N)CC(=O)N4C2CCCC2)C1 (stereo not shown) — what was its Spec Values?
result: 104

query: Sample "Cc1nn2c(S)nnc2nc1O" — what was its Spec Values?
result: 168.5

query: Sample "CN(C)c1ccc(/C=C2\SC(=O)N(CCC(=O)Nc3ccccc3)C2=O)cc1" — what was its Spec Values?
result: 62.76

query: Sample "CC1=C(C#N)C(O)=NC(=O)/C1=C/c1ccc(-c2cccc(C(=O)O)c2)o1" — what was its Spec Values?
result: 52.9

query: Sample CC1CCC[SH](c2cc(O)ccc2O)C1 (stereo not shown) — what was its Spec Values?
result: 53.57

query: Sample "CC1=C/C(=N\Nc2ccccc2Cl)CC1" — what was its Spec Values?
result: 64.61

query: Sample "O=c1ccc(-c2ccco2)nn1Cc1ccc(Cl)c(Cl)c1" — what was its Spec Values?
result: 49.7

query: Sample Cc1ccc2c(c1)CC[C@H]1C3CC[C@H](NCCCCCCN4C(=O)C=CC4=O)[C@@]3(C)CC[C@H]21 (stereo partly shown) [U73122, reference compound] — what was its Spec Values?
result: 49.67

query: Sample CN1CCN(C(c2ccccn2)c2c(-c3ccccc3)n(O)c3ccccc23)CC1 (stereo not shown) — what was its Spec Values?
result: 49.28

query: Sample "O=C1N/C(=N/c2ccccc2)S/C1=C/C=C/c1ccco1" — what was its Spec Values?
result: 48.63

query: Sample "O=C(NCc1ccco1)c1ccc(-c2cc3ccccc3oc2=O)cc1" — what was its Spec Values?
result: 47.79

query: Sample "COc1cc(C2Nc3cccc4cccc(c34)N2)cc(I)c1O" — what was its Spec Values?
result: 58.66

query: Sample "CCCOC(=O)c1cc(-c2ccc(/C=C3\C(=O)NC(=O)C(C#N)=C3C)o2)ccc1Cl" — what was its Spec Values?
result: 97.76

query: Sample CC1CCc2c(sc3ncn4c(S)nnc4c23)C1 (stereo not shown) — what was its Spec Values?
result: 46.37

query: Sample N#CC1=C(c2ccc(Cl)cc2)C2CSc3ccccc3C2NC1=O (stereo not shown) — what was its Spec Values?
result: 68.29

query: Sample "O=C(c1ccccc1)c1nc2ccccc2oc1=O" — what was its Spec Values?
result: 62.88

query: Sample "COC(=O)c1ccc(-c2ccc(/C=C3/C(=O)N(C)C(=O)C(C#N)=C3C)o2)cc1" — what was its Spec Values?
result: 52.77

query: Sample CCCCSC1=C(C#N)C(=O)NC(c2ccco2)S1 (stereo not shown) — what was its Spec Values?
result: 73.94

query: Sample N#CC1=C(S)NC(=O)C(C#N)C12CCCCC2 (stereo not shown) — what was its Spec Values?
result: 67.9

query: Sample "CC(C)CN1C(=O)/C(=C\c2ccc(-c3ccc(S(N)(=O)=O)cc3)o2)SC1=S" — what was its Spec Values?
result: 47.35

query: Sample "O=c1oc2cc(Cl)c(O)c(Cl)c2s1" — what was its Spec Values?
result: 109.9

query: Sample O=c1cc(-c2ccccc2)oc2cc(O)c(O)c(O)c12 [Baicailen, reference compound] — what was its Spec Values?
result: 93.84

query: Sample "Cc1occc1-c1nnc2n1N=C(c1ccc(-c3cc(Cl)ccc3Cl)o1)CS2" — what was its Spec Values?
result: 81.03

query: Sample "COc1cccc(OCc2nnc(SCc3ccccc3)n2C)c1" — what was its Spec Values?
result: 50.95

query: Sample "CCCCCSc1nnc(N/C=N/O)s1" — what was its Spec Values?
result: 45.49

query: Sample CC1CCc2c(sc3[nH]c(=S)sc(=N)c23)C1 (stereo not shown) — what was its Spec Values?
result: 64.71

Sourced from patent US20150315211A1
